- Species: Rattus norvegicus
- Test Protocol: DrugMatrix - Regimen: Daily Repeat
- Type: toxicity, organism-based, Sprague-Dawley
- Set-up: regimen Daily Repeat, gender Male, age 6-8 weeks
- Recorded Conditions: in vivo, po, 0 mg/kg, 72 h, tissue Plasma, route oral GAVAGE, dose level Control, time 3 day, […]
Recorded BLOOD UREA NITROGEN, one value per entry.
Quantity Measured: BLOOD UREA NITROGEN (mg/dL)

INSERT INTO assay_data (compound, quantity_measured, measurement_unit, observed_result) VALUES
  ('CN(CCOc1ccc(CC2SC(=O)NC2=O)cc1)c1ccccn1 (stereo unspecified) [ROSIGLITAZONE]', 'BLOOD UREA NITROGEN', 'mg/dL', 14.5),
  ('CC(CCc1ccc(O)cc1)NCCc1ccc(O)c(O)c1 (stereo unspecified) [DOBUTAMINE]', 'BLOOD UREA NITROGEN', 'mg/dL', 17.67),
  ('OCCN1CCN(CCCN2c3ccccc3Sc3ccc(C(F)(F)F)cc32)CC1 [FLUPHENAZINE]', 'BLOOD UREA NITROGEN', 'mg/dL', 13),
  ('COc1ncnc(NS(=O)(=O)c2ccc(N)cc2)c1OC [SULFADOXINE]', 'BLOOD UREA NITROGEN', 'mg/dL', 12),
  ('CC(=O)Nc1nnc(S(N)(=O)=O)s1 [ACETAZOLAMIDE]', 'BLOOD UREA NITROGEN', 'mg/dL', 12),
  ('CC(C)Cc1ccc(CC(=O)O)cc1 [IBUFENAC]', 'BLOOD UREA NITROGEN', 'mg/dL', 17.67),
  ('CC[C@H](C)C(=O)O[C@H]1C[C@@H](C)C=C2C=C[C@H](C)[C@H](CC[C@@H]3C[C@@H](O)CC(=O)O3)[C@H]21 [LOVASTATIN]', 'BLOOD UREA NITROGEN', 'mg/dL', 11.33),
  ('NC[C@@H]1O[C@H](O[C@H]2[C@@H](O)[C@H](O[C@@H]3[C@@H](O)[C@H](N)C[C@H](N)[C@H]3O[C@H]3O[C@H](CN)[C@@H](O)[C@H](O)[C@H]3N)O[C@@H]2CO)[C@H](N)[C@@H](O)[C@@H]1O [FRAMYCETIN]', 'BLOOD UREA NITROGEN', 'mg/dL', 12.33),
  ('C#C[C@]1(O)CC[C@H]2[C@@H]3CCc4cc(O)ccc4[C@H]3CC[C@@]21C [ETHINYL ESTRADIOL]', 'BLOOD UREA NITROGEN', 'mg/dL', 14.33),
  ('CC[C@H](C)C(=O)O[C@H]1C[C@H](O)C=C2C=C[C@H](C)[C@H](CC[C@@H](O)C[C@@H](O)CC(=O)O)[C@H]21 [PRAVASTATIN]', 'BLOOD UREA NITROGEN', 'mg/dL', 14.5),
  ('CCn1cc(C(=O)O)c(=O)c2cc(F)c(N3CCNCC3)nc21 [ENOXACIN]', 'BLOOD UREA NITROGEN', 'mg/dL', 14.33);

----------
- Organism: Rattus norvegicus
- Test Protocol: DrugMatrix - Regimen: Daily Repeat
- Type: toxicity, organism-based, Sprague-Dawley
- Set-up: regimen Daily Repeat, gender Male, age 6-8 weeks
- Recorded Conditions: in vivo, po, 0 mg/kg, 120 h, tissue Plasma, route oral GAVAGE, dose level Control, time 5 day, vehicle .5 % CMC
Quantity Measured: CHLORIDE (MEQ/L)

INSERT INTO measurements (compound, quantity_measured, observed_result) VALUES
  ('CCCCC1C(=O)N(c2ccccc2)N(c2ccccc2)C1=O', 'CHLORIDE', 102),
  ('CC(C(=O)O)c1ccc(-c2ccccc2)c(F)c1 (configuration not stated)', 'CHLORIDE', 101),
  ('CC(=O)O[C@]1(C(C)=O)CC[C@H]2[C@@H]3C=C(Cl)C4=CC(=O)[C@@H]5C[C@@H]5[C@]4(C)[C@H]3CC[C@@]21C [CYPROTERONE ACETATE]', 'CHLORIDE', 101.5),
  ('CO[C@H]1C[C@@H]2CC[C@@H](C)[C@@](O)(O2)C(=O)C(=O)N2CCCC[C@H]2C(=O)O[C@H]([C@H](C)C[C@@H]2CC[C@@H](O)[C@H](OC)C2)CC(=O)[C@H](C)/C=C(\C)[C@@H](O)[C@@H](OC)C(=O)[C@H](C)C[C@H](C)/C=C/C=C/C=C/1C', 'CHLORIDE', 98),
  ('COc1ccc(/C=C/C(=O)Nc2ccccc2C(=O)O)cc1OC', 'CHLORIDE', 101),
  ('CC[C@]1(O)CC[C@H]2[C@@H]3CCC4=CCCC[C@@H]4[C@H]3CC[C@@]21C', 'CHLORIDE', 103),
  ('C[C@]12C/C(=C/O)C(=O)C[C@@H]1CC[C@@H]1[C@@H]2CC[C@@]2(C)[C@H]1CC[C@]2(C)O', 'CHLORIDE', 107.67);

This collection of values is drawn from ChEMBL document CHEMBL3885881.
